assayed.system: Gamma-secretase (Homo sapiens) (UniProt Q96BI3+Q9NZ42+Q8WW43+P49768+Q92542+P49810)
experiment.summary: Inhibition of gamma-secretase-mediated APP cleavage in human SNC cells by ELISA
Assay type: cell-based
Would you mind telling me the reported ED50 of each entry?
One number for each entry, in nM.

Please review the entries below; each comes with its answer.
{"columns": ["compound", "assayed.system", "readout.name", "units", "value.measured"],
 "data": [
  ["O=C1c2[nH]ncc2[C@@H](C2CC2)N(S(=O)(=O)c2ccc(C(F)(F)F)nc2)[C@@H]1C1CC1 (relative stereo)", "Gamma-secretase (Homo sapiens) (UniProt Q96BI3+Q9NZ42+Q8WW43+P49768+Q92542+P49810)", "ED50", "nM", 374],
  ["CC(C)(C)C1C(=O)c2[nH]ncc2C(C2CC2)N1S(=O)(=O)c1ccc(C(F)(F)F)nc1 (stereo in doubt; 3u)", "Gamma-secretase (Homo sapiens) (UniProt Q96BI3+Q9NZ42+Q8WW43+P49768+Q92542+P49810)", "ED50", "nM", 16],
  ["CC(C)(C)C1C(=O)c2[nH]ncc2C(C2CC2)N1S(=O)(=O)c1ccc(C(F)(F)F)nc1 (stereo in doubt; 3t)", "Gamma-secretase (Homo sapiens) (UniProt Q96BI3+Q9NZ42+Q8WW43+P49768+Q92542+P49810)", "ED50", "nM", 0.6]
]}

Could you now consider this next compound?
Look up ED50 for this compound: CC(C)[C@@H]1c2cn[nH]c2C(=O)CN1S(=O)(=O)c1ccc(Cl)cc1
4000

---

Would you mind telling me the reported IC50 of each entry?
experiment.summary: Inhibition of gamma-secretase-mediated notch cleavage after 2 hrs by ELISA
One number for each entry, in nM.

{"columns": ["molecule", "units", "IC50"],
 "data": [
  ["O=S(=O)(c1ccc(C(F)(F)F)nc1)N1[C@@H](C2CC2)c2cn[nH]c2C(F)(F)[C@H]1C1CC1 (stereo in doubt)", "nM", 23],
  ["CC1C(=O)c2[nH]ncc2C(C2CC2)N1S(=O)(=O)c1ccc(C(F)(F)F)cc1 (stereo not drawn)", "nM", 12]
]}

Could you now consider this next molecule?
Look up IC50 for this molecule: O=S(=O)(c1ccc(C(F)(F)F)cc1)N1C(C2CC2)c2cn[nH]c2C(F)(F)C1C1CC1 (stereo not drawn)
42

---

Would you mind telling me the reported ED50 of each entry?
assayed.system: Gamma-secretase (Homo sapiens) (UniProt Q96BI3+Q9NZ42+Q8WW43+P49768+Q92542+P49810)
experiment.summary: Inhibition of gamma-secretase-mediated APP cleavage in human SNC cells by ELISA
Assay type: cell-based
Numbers only, in nM.

Please review the entries below; each comes with its answer.
{"columns": ["molecule", "readout.name", "units", "value.measured"],
 "data": [
  ["O=C1c2[nH]ncc2C(C2CC2)N(S(=O)(=O)c2ccc(C(F)(F)F)cc2)C1C1CC1 (racemic)", "ED50", "nM", 21],
  ["C[C@@H]1N(S(=O)(=O)c2ccc(C(F)(F)F)nc2)[C@H](C2CC2)c2cn[nH]c2C1(F)F (relative stereo)", "ED50", "nM", 6],
  ["O=S(=O)(c1ccc(C(F)(F)F)nc1)N1C(C2CC2)c2cn[nH]c2C(F)(F)C12CC2 (stereo in doubt; 17b)", "ED50", "nM", 0.3],
  ["O=C1c2[nH]ncc2C(C2CC2)N(S(=O)(=O)c2ccc(C(F)(F)F)nc2)C12CC2 (stereo in doubt; 16e)", "ED50", "nM", 2680]
]}

Could you now consider this next molecule?
Look up ED50 for this molecule: CC[C@@H]1C(=O)c2[nH]ncc2[C@H](CC)N1S(=O)(=O)c1ccc(Cl)cc1 (stereo in doubt)
6

Source: ChEMBL document CHEMBL1158636
